Hey, just so you know, these numbers are from PubChem BioAssay AID1159580.

Entries and their measured normalized growth follow.
experiment: chemical genetic growth profiling, strain panel (AID 1159580);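 note: tested at 20 µM; growth read once vehicle control cultures reached saturation at 30 °C; 1 = growth at the plate median or of vehicle wells; lower values mean less growth of the strain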; conditions: S. cerevisiae deletion strains, growth OD, locus YPR135W, strain CTF4, stronger effect = lower value
Among all 5,500 compounds or so, about 2,000 (36%) were called active. Inconclusive results (about 18%) are left out. Some of the results follow.
// keep it numeric: no unit symbol after the value

The following molecules have reported results that may help.
CC(C)(C)C(=O)NC(=S)Nc1cccc(C(F)(F)F)c1: 0.569
CC(=O)N/C(=C/c1ccc2c(c1)OCO2)C(=O)O: 0.998

State the recorded normalized growth for this entry: OC(CNCCc1cccs1)COc1ccccc1 (centres undefined) 0.949

Now try "NC(=S)N/N=C\c1ccccc1" . 0.886

Now try "c1ccc2c(c1)CCc1c-2[nH]c2ccccc12" . 0.294

Now try "NC(=S)N/N=C\c1cc(F)cc(F)c1" . 0.78

Now try "N#Cc1c(N)sc2c1CCCCC2" . 0.498

Now try "NC(=S)N/N=C\c1ccc(F)c(Cl)c1" . 0.655

Now try "Cc1[nH]ncc1-c1ccccc1" . 0.921

Now try CN1CCCC12NCCc1c2[nH]c2ccccc12 (centres undefined) . 1.03

Now try "COc1ccc(CCNC(=S)Nc2cccc(C(F)(F)F)c2)cc1OC" . 0.895

Now try "O=C(N/N=C\c1cccs1)c1ccccc1CO" . 1.04

Now try "Fc1cc2n[nH]nc2cc1Cl" . 0.945

Now try "O=C(Nc1ccc(C(F)(F)F)cc1)Nc1ccccc1C(=O)O" . 0.949

====

assay: chemical genetic growth profiling, strain panel (AID 1159580); conditions: S. cerevisiae deletion strains, growth OD, locus YHR013C, strain ard1, stronger effect = lower value
Among all 5,500 compounds or so, about 2,000 (36%) were called active. About 18% were inconclusive and are not listed. Some of the results follow.
Response field label: string, one of t (normalized growth strictly below 1) or f.

Examples with answers:
C=C(CC)C(=O)c1ccc(OCC(=O)O)c(Cl)c1Cl: f
C=CCC1(C(C)CCC)C(=O)N=C(S)NC1=O (stereo unspecified): t
C=C[C@@H](C1=CC(=O)C(OC)=C(OC)C1=O)c1ccccc1: t

is_below(normalized growth, 1) for C=CC(C1=CC(=O)C(OC)=CC1=O)c1ccccc1 (stereo unspecified) ? t

Now try C=CC(C1=CC(=O)C(OC)=CC1=O)c1ccc(OC)cc1 (stereo unspecified) . t

Now try "Nc1ccc(S(=O)(=O)Nc2ccc(Cl)nn2)cc1" . t

====

Entries and their measured normalized growth follow.
experiment: chemical genetic growth profiling, strain panel (AID 1159580); conditions: S. cerevisiae deletion strains, growth OD, locus YGR052W, strain FMP48, stronger effect = lower value
About 2,000 (36%) of roughly 5,500 compounds were called active. About 18% were inconclusive and are not listed. This is one part of the list.

State the recorded normalized growth for this entry: "CC(=O)c1sc(SCCS(=O)(=O)c2ccc(C)cc2)c2c1CC(C)(C)CC2=O" 0.947 (inactive)

Now try "O=[N+]([O-])c1cc(Br)cnc1Sc1nnc(SCC2CC2)s1" . 0.7 (inactive)

Now try "O=S(=O)(N/N=C\c1ccc(Cl)cc1)c1ccc(-c2ccccn2)s1" . 0.947 (inactive)

====

experiment: chemical genetic growth profiling, strain panel (AID 1159580); conditions: S. cerevisiae deletion strains, growth OD, locus YMR231W, strain pep5, stronger effect = lower value
About 2,000 (36%) of roughly 5,500 compounds were called active. Inconclusive results (about 18%) are left out. The list shows a part of the results.
Entries and their measured normalized growth follow.
// keep it numeric: no unit symbol after the value

The following molecules have reported results that may help.
O=C(OC1Cc2c(O)cc(O)cc2OC1c1cc(O)c(O)c(O)c1-c1c(C2Oc3cc(O)cc(O)c3CC2OC(=O)c2cc(O)c(O)c(O)c2)cc(O)c(O)c1O)c1cc(O)c(O)c(O)c1 (centres undefined): 0.762
CN1C(CC(=O)c2ccccc2)CCCC1CC(O)c1ccccc1 (centres undefined): 0.987

State the recorded normalized growth for this entry: CN(C)CCOC(C)(c1ccccc1)c1ccccn1 (centres undefined) 1.01

Now try "CC(=O)Nc1cc([As](=O)(O)O)ccc1O" . 0.996

Now try CCCC1O[C@@H]2CC3C4CCC5=CC(=O)C=CC5(C)C4[C@@H](O)CC3(C)[C@]2(C(=O)CO)O1 (some centres undefined) . 1.01

Now try O=c1[nH]c(=O)n(C2C[C@@H](O)[C@@H](CO)O2)cc1F (some centres undefined) . 1.01

Now try CC(C)NCC(O)c1ccc2ccccc2c1 (centres undefined) . 1

Now try C=C(NC(=O)C(=C)NC(=O)c1csc(C2=NC3c4csc(n4)C4NC(=O)c5csc(n5)C(C(C)(O)C(C)O)NC(=O)C5CSC(=N5)C(=CC)NC(=O)C(C(C)O)NC(=O)c5csc(n5)C3(CC2)NC(=O)C(C)NC(=O)C(=C)NC(=O)C(C)NC(=O)C(C(C)CC)NC2C=Cc3c(C(C)O)cc(nc3C2O)C(=O)OC4C)n1)C(N)=O (centres undefined) . 0.983

Now try Nc1ncnc2c1ncn2C1C[C@H](O)[C@@H](CO)O1 (some centres undefined) . 0.991

====

experiment: chemical genetic growth profiling, strain panel (AID 1159580); conditions: S. cerevisiae deletion strains, growth OD, locus YLL041C, strain sdh2, stronger effect = lower value
In all, about 5,500 compounds went through this assay and about 2,000 (36%) were called active. Inconclusive results (about 18%) are left out. Some of the results follow.
value.type: normalized growth
// keep it numeric: no unit symbol after the value

The following compounds have reported results that may help.
Oc1c(I)cc(Cl)c2cccnc12: 0.0731
CCCC(C)C1(CC)C(=O)NC(=O)NC1=O (stereo not drawn): 1
C[n+]1cccc(C(=O)[O-])c1: 0.963

State the recorded normalized growth for this entry: "O=C(O)c1ccccc1Nc1cccc(C(F)(F)F)c1" 0.803

====

assay: chemical genetic growth profiling, strain panel (AID 1159580);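 note: tested at 20 µM; growth read once vehicle control cultures reached saturation at 30 °C; 1 = growth at the plate median or of vehicle wells; lower values mean less growth of the strain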; conditions: S. cerevisiae deletion strains, growth OD, locus YDR054C, strain cdc34, stronger effect = lower value
Among all 5,500 compounds or so, about 2,000 (36%) were called active. Roughly 18% stayed inconclusive and do not appear here. Some of the results follow.
Entries and their measured normalized growth follow.
// keep it numeric: no unit symbol after the value

The following compounds have reported results that may help.
O=[N+]([O-])/C=C/c1ccc(F)cc1: 0.0951
Cc1c2c(=O)[nH]ncc2c(-c2ccccc2)n1-c1ccc([N+](=O)[O-])cc1: 1
Cc1cc(Cl)ccc1NC(=S)NNC(=S)Nc1ccc(F)cc1: 0.943
O=C(c1ccccc1)c1cc(Cl)ccc1NC(=S)Nc1ccc(F)cc1: 0.994
CC(C)c1ccc(NCC(O)CSc2ccccc2)cc1 (stereo unspecified): 0.947
CCOc1ccc(/C=C(\C)[N+](=O)[O-])cc1OC: 0.978
Cn1c(CSCCOc2ccccc2)nnc1SCc1ccc(Cl)cc1Cl: 0.985
C/C(=C\c1ccc2c(c1)OCO2)[N+](=O)[O-]: 0.1

State the recorded normalized growth for this entry: CCOC(=O)C1=C(N)OC2=C(C(=O)CC(C)(C)C2)C1c1ccc(Cl)cc1Cl (stereo unspecified) 0.965

Now try "CC(C)c1ccc(NC(=S)NC(=O)c2ccccc2)cc1" . 0.94

Now try "N#CC(C#N)=C/C=C(/Sc1nc2ccccc2s1)c1ccc(Br)cc1" . 0.145

====

Entries and their measured normalized growth follow.
experiment: chemical genetic growth profiling, strain panel (AID 1159580);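 note: tested at 20 µM; growth read once vehicle control cultures reached saturation at 30 °C; 1 = growth at the plate median or of vehicle wells; lower values mean less growth of the strain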; details: S. cerevisiae deletion strains, growth OD, locus YJL092W, strain hpr5, stronger effect = lower value
The whole screen tested about 5,500 compounds, of which about 2,000 (36%) were called active. Another 18% or so got no clear call; they are omitted. Some of the results follow.
// keep it numeric: no unit symbol after the value

The following compounds have reported results that may help.
O=C(NC(=O)c1c(F)cccc1F)Nc1ccc(Cl)cc1: 1.02
O=C(O[C@@H]1Cc2c(O)cc(O)cc2O[C@@H]1c1cc(O)c(O)c(O)c1-c1c([C@H]2Oc3cc(O)cc(O)c3C[C@H]2O)cc(O)c(O)c1O)c1cc(O)c(O)c(O)c1: 1.03
O=C(OC1Cc2c(O)cc(O)cc2OC1c1cc(O)c(O)c(O)c1-c1c(C2Oc3cc(O)cc(O)c3CC2OC(=O)c2cc(O)c(O)c(O)c2)cc(O)c(O)c1O)c1cc(O)c(O)c(O)c1 (centres undefined): 1.03

Shift focus to the following entry.
State the recorded normalized growth for this entry: "Cc1occc(=O)c1O" 0.976

====

assay: chemical genetic growth profiling, strain panel (AID 1159580);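 note: tested at 20 µM; growth read once vehicle control cultures reached saturation at 30 °C; 1 = growth at the plate median or of vehicle wells; lower values mean less growth of the strain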; settings: S. cerevisiae deletion strains, growth OD, locus YOR119C, strain RIO1, stronger effect = lower value
In all, about 5,500 compounds went through this assay and about 2,000 (36%) were called active. About 18% were inconclusive and are not listed. This is one part of the list.
Response field label: string, one of T (normalized growth strictly below 0.9) or F.

Examples with answers:
S=C(N/N=C\c1ccc(Cl)cc1)N/N=C\c1ccc(Cl)cc1: T
O=C(NCc1ccncc1)c1ccc(-n2cccn2)cc1: F
O=C(NC(=S)Nc1cccc(C(F)(F)F)c1)c1ccc2nonc2c1: F
O=c1c(Cl)c(-n2cccn2)cnn1-c1ccc(Cl)cc1Cl: F
O=[N+]([O-])c1cc(Br)cnc1Sc1nnc(SCC2CC2)s1: T
CC(C)c1ccc(N2C=Nc3ccc(C(C)C)cc3C2)cc1: F

is_below(normalized growth, 0.9) for "Fc1cccc(F)c1NC(=S)Nc1cc(C(F)(F)F)cc(C(F)(F)F)c1" ? F

Now try "Cn1c(CSCCOc2ccccc2)nnc1SCc1ccc(Cl)cc1Cl" . F

Now try "Fc1cccc(Cl)c1CSc1nncn1-c1ccc(OCc2ccccc2)cc1" . F

Now try "FC(F)(F)c1cccc(NNC(=S)Nc2ccccc2)c1" . F

Now try "Cc1ccc(S(=O)(=O)CCSC2=CC(=O)CC(C)(C)S2)cc1" . F

Now try "Cc1cccc(Cl)c1/C=N\NC(N)=S" . T

Now try "CC(=O)Nc1ccc([N+](=O)[O-])cc1[N+](=O)[O-]" . T
